- TARGET OF ASSAY: ΔF508-CFTR (Homo sapiens, UniProt P13569, DEL508-508)
- Construct: host or cells: CFBE41o-, doxycycline-inducible
- Sequence (P13569 with tags, fused parts or gaps DEL508-508): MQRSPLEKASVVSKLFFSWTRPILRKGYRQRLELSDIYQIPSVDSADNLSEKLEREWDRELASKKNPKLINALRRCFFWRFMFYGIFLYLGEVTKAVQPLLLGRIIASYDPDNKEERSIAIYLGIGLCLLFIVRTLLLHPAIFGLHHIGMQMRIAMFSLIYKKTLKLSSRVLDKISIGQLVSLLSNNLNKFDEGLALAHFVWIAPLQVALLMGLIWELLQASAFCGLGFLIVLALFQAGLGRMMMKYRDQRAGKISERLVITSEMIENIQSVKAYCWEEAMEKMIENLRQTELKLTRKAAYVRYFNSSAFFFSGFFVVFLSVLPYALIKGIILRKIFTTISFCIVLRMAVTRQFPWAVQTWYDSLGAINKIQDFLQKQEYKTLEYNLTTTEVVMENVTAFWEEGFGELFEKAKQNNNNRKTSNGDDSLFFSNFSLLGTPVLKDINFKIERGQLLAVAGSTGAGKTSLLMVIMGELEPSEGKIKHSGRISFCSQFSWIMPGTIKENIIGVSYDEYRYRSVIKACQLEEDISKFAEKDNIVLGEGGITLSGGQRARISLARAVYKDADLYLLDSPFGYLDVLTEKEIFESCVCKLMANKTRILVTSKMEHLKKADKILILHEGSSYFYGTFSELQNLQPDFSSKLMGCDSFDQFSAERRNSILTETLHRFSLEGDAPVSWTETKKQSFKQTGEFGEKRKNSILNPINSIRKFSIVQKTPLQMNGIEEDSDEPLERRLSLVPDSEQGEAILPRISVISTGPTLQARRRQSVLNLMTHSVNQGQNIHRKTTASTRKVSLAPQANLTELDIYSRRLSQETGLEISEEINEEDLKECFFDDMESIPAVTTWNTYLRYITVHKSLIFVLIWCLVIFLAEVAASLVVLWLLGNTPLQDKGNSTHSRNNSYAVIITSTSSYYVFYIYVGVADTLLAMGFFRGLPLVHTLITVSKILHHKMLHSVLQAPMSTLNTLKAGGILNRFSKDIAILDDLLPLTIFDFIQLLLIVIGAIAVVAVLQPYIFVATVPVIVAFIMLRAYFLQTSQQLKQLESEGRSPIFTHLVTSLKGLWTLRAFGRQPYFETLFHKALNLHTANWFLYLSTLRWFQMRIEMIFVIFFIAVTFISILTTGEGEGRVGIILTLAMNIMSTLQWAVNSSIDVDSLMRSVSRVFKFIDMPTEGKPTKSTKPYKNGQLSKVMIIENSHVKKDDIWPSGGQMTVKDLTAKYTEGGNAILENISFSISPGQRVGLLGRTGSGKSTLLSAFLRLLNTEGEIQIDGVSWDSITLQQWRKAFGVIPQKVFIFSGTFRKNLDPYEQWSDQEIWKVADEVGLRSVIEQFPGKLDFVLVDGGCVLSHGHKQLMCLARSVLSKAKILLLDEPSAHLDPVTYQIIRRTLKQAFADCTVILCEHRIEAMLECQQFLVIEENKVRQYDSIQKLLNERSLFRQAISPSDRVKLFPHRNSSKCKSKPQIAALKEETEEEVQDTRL
- PROTOCOL DESCRIPTION: CFTR cell surface levels using HRP-tagged ΔF508-CFTR expressing CFBE cells, intrinsic corrector capacity
- Format: cell-based
- Set-up: concentration or dose not given beside the values
- EXPERIMENTAL CONDITIONS: HRP-tagged ΔF508-CFTR expressing CFBE41o- cells; compound alone (intrinsic corrector capacity); 20 hours at 33° C.
READOUT KIND: % Activation

COMPOUND: CC(C)Oc1nn(C2CCCCC2)c2nc(C(=O)NS(C)(=O)=O)cc(-c3ccc(C(=O)N4CC5CNCC5C4)cc3)c12 (stereo not shown)
RESULT: 122.53%

COMPOUND: CC(=O)N1CCC2CN(c3cc(C(=O)NS(C)(=O)=O)nc4c3c(C3CCC3)nn4-c3ccccc3)CCC21 (stereo not shown)
RESULT: 275.67%

COMPOUND: COCCS(=O)(=O)NC(=O)c1cc(N2CCC(N3CCOCC3)CC2)c2c(C3CCC3)nn(-c3ccccc3)c2n1
RESULT: 337%

COMPOUND: CC(C)c1nn(-c2cccc(N3CCOCC3)c2)c2nc(C(=O)NS(C)(=O)=O)cc(-c3ccc(N(C)C4CCOCC4)cc3)c12
RESULT: 444.85%

COMPOUND: CCS(=O)(=O)NC(=O)c1cc(OCC2CCOCC2)c2c(C3CCC3)nn(-c3ccccc3)c2n1
RESULT: 171.65%

COMPOUND: CS(=O)(=O)NC(=O)c1cc(N2CCC[C@@H](CO)C2)c2c(C3CCC3)nn(-c3ccccc3)c2n1
RESULT: 161.7%

COMPOUND: CS(=O)(=O)NC(=O)c1cc(-c2ccc(N3CCC(C#N)CC3)nc2)c2c(C3CCC3)nn(-c3ccnc(N4CCOCC4)c3)c2n1
RESULT: 200.8%

COMPOUND: CS(=O)(=O)NC(=O)c1cc(N2CCC(N3CCOCC3)CC2)c2c(C3CCC3)nn(C3CCCCC3)c2n1
RESULT: 321.3%

COMPOUND: CS(=O)(=O)NC(=O)c1cc(C2CCN(C3CCOCC3)CC2)c2c(C3CCC3)nn(-c3ccc(F)cc3)c2n1
RESULT: 88.94%

COMPOUND: CC(C)Oc1nn(C2CCCCC2)c2nc(C(=O)NS(=O)(=O)N(C)C)cc(-c3ccc(C(=O)N4CCN(C)CC4)cc3)c12
RESULT: 175.55%

----------
Overview of reported % Activation across a group of compounds:
- TARGET OF ASSAY: ΔF508-CFTR (Homo sapiens, UniProt P13569, DEL508-508)
- Construct: host or cells: CFBE41o-, doxycycline-inducible
- PROTOCOL DESCRIPTION: CFTR cell surface levels using HRP-tagged ΔF508-CFTR expressing CFBE cells, intrinsic corrector capacity
- Assay type: cell-based
- Design: concentration or dose not given beside the values
- EXPERIMENTAL CONDITIONS: HRP-tagged ΔF508-CFTR expressing CFBE41o- cells; compound alone (intrinsic corrector capacity); 20 hours at 33° C.

COMPOUND: CC(C)N1CCN(C2CCN(c3cc(C(=O)NS(=O)(=O)N(C)C)nc4c3c(C3CCC3)nn4C3CCCCC3)CC2)CC1
TARGET OF ASSAY: ΔF508-CFTR (Homo sapiens, UniProt P13569, DEL508-508)
% Activation, %: 293
//
COMPOUND: CC(C)N(C)S(=O)(=O)NC(=O)c1cc(N2CCC(N3CCOCC3)CC2)c2c(C3CCC3)nn(-c3ccc(F)cc3)c2n1
TARGET OF ASSAY: ΔF508-CFTR (Homo sapiens, UniProt P13569, DEL508-508)
% Activation, %: 214.1
//
COMPOUND: COCC1CCN(c2cc(C(=O)NS(=O)(=O)C3CCNCC3)nc3c2c(C2CCC2)nn3-c2ccccc2)CC1
TARGET OF ASSAY: ΔF508-CFTR (Homo sapiens, UniProt P13569, DEL508-508)
% Activation, %: 185
//
COMPOUND: CN(C)S(=O)(=O)NC(=O)c1cc(N2CCC(N3CCCC(C#N)C3)CC2)c2c(C3CCC3)nn(-c3ccc(F)cc3)c2n1 (stereo not shown)
TARGET OF ASSAY: ΔF508-CFTR (Homo sapiens, UniProt P13569, DEL508-508)
% Activation, %: 341.3
//
COMPOUND: COCCS(=O)(=O)NC(=O)c1cc(-c2ccc(N3CCOCC3)cc2)c2c(OC(C)C)nn(-c3ccccc3)c2n1
TARGET OF ASSAY: ΔF508-CFTR (Homo sapiens, UniProt P13569, DEL508-508)
% Activation, %: 206.7
//
COMPOUND: CCS(=O)(=O)NC(=O)c1cc(-c2ccc(N3CCOCC3)nc2)c2c(C)nn(-c3cccc(C(F)(F)F)c3)c2n1
TARGET OF ASSAY: ΔF508-CFTR (Homo sapiens, UniProt P13569, DEL508-508)
% Activation, %: 196.2
//
COMPOUND: COCCS(=O)(=O)NC(=O)c1cc(-c2ccc(N3CCC(C#N)CC3)nc2)c2c(OC3CCOC3)nn(-c3ccccc3)c2n1 (stereo not shown)
TARGET OF ASSAY: ΔF508-CFTR (Homo sapiens, UniProt P13569, DEL508-508)
% Activation, %: 138.8
//
COMPOUND: COCCN(C)c1ccc(-c2cc(C(=O)NS(C)(=O)=O)nc3c2c(C(C)C)nn3-c2cccc(N(C)C)c2)cn1
TARGET OF ASSAY: ΔF508-CFTR (Homo sapiens, UniProt P13569, DEL508-508)
% Activation, %: 311.7
//
COMPOUND: CS(=O)(=O)NC(=O)c1cc(N2CC3(CCCC3)C2)c2c(C3CCC3)nn(-c3ccccc3)c2n1
TARGET OF ASSAY: ΔF508-CFTR (Homo sapiens, UniProt P13569, DEL508-508)
% Activation, %: 95.405
//
COMPOUND: COC1CCN(c2cc(C(=O)NS(=O)(=O)CCC(F)(F)F)nc3c2c(C2CCC2)nn3-c2ccccc2)CC1
TARGET OF ASSAY: ΔF508-CFTR (Homo sapiens, UniProt P13569, DEL508-508)
% Activation, %: 176.47
//
COMPOUND: O=C(NS(=O)(=O)C1CCOC1)c1cc(N2CCC(N3CCOCC3)CC2)c2c(C3CCC3)nn(-c3ccc(F)cc3)c2n1 (stereo not shown)
TARGET OF ASSAY: ΔF508-CFTR (Homo sapiens, UniProt P13569, DEL508-508)
% Activation, %: 252.1
//
COMPOUND: CS(=O)(=O)NC(=O)c1cc(-c2ccc(N3CCC(C#N)CC3)nc2)c2c(C3CC(F)(F)C3)nn(-c3ccccc3)c2n1
TARGET OF ASSAY: ΔF508-CFTR (Homo sapiens, UniProt P13569, DEL508-508)
% Activation, %: 225.2
//
COMPOUND: O=C(NS(=O)(=O)N1CCCCC1)c1cc(N2CCC(N3CCOCC3)CC2)c2c(C3CCC3)nn(-c3ccc(F)cc3)c2n1
TARGET OF ASSAY: ΔF508-CFTR (Homo sapiens, UniProt P13569, DEL508-508)
% Activation, %: 240.65
//
COMPOUND: CN1CCN(Cc2cc(C(=O)NS(C)(=O)=O)nc3c2c(C2CCC2)nn3-c2ccc(F)cc2)CC1
TARGET OF ASSAY: ΔF508-CFTR (Homo sapiens, UniProt P13569, DEL508-508)
% Activation, %: 35.86
//
COMPOUND: C[C@@H](C1CCN(c2cc(C(=O)NS(=O)(=O)N(C)C)nc3c2c(C2CCC2)nn3-c2ccc(F)cc2)CC1)N1CCOCC1
TARGET OF ASSAY: ΔF508-CFTR (Homo sapiens, UniProt P13569, DEL508-508)
% Activation, %: 322.45
//
COMPOUND: CS(=O)(=O)NC(=O)c1cc(N2CCN(CC(F)(F)F)CC2)c2c(C3CCC3)nn(-c3ccccc3)c2n1
TARGET OF ASSAY: ΔF508-CFTR (Homo sapiens, UniProt P13569, DEL508-508)
% Activation, %: 163.85
//
COMPOUND: Cc1cc(-n2nc(C3CCC3)c3c(N4CCC(N5CCOCC5)CC4)cc(C(=O)NS(=O)(=O)N(C)C)nc32)ccc1F
TARGET OF ASSAY: ΔF508-CFTR (Homo sapiens, UniProt P13569, DEL508-508)
% Activation, %: 248.55
//
COMPOUND: CS(=O)(=O)NC(=O)c1cc(OCC2CCCO2)c2c(C3CCC3)nn(-c3ccccc3)c2n1 (stereo not shown)
TARGET OF ASSAY: ΔF508-CFTR (Homo sapiens, UniProt P13569, DEL508-508)
% Activation, %: 141.2
//
COMPOUND: COC[C@H]1CCCN1C1CCN(S(=O)(=O)NC(=O)c2cc(N3CCC(CN4CCCC4)CC3)c3c(C4CCC4)nn(-c4ccccc4)c3n2)CC1
TARGET OF ASSAY: ΔF508-CFTR (Homo sapiens, UniProt P13569, DEL508-508)
% Activation, %: 124.4
//
COMPOUND: CS(=O)(=O)NC(=O)c1cc(C2CCC(N3CCOCC3)CC2)c2c(C3CCC3)nn(-c3ccccc3)c2n1 (stereo not shown)
TARGET OF ASSAY: ΔF508-CFTR (Homo sapiens, UniProt P13569, DEL508-508)
% Activation, %: 109.65
//
COMPOUND: CCOC(=O)N1CCC(NS(=O)(=O)NC(=O)c2cc(N3CCC(CN4CCCC4)CC3)c3c(C4CCC4)nn(-c4ccccc4)c3n2)CC1
TARGET OF ASSAY: ΔF508-CFTR (Homo sapiens, UniProt P13569, DEL508-508)
% Activation, %: 272.2
//
COMPOUND: CCS(=O)(=O)NC(=O)c1cc(-c2ccc(N(C)C3CCOCC3)nc2)c2c(C(C)C)nn(-c3cccc(F)c3)c2n1
TARGET OF ASSAY: ΔF508-CFTR (Homo sapiens, UniProt P13569, DEL508-508)
% Activation, %: 228.8

The reported measurements were obtained from patent US10259810B2.
